- Measured On: T1, canine NGF tagged at the C-terminus with the Flag tag (canine, UniProt A0A8I3PYI3 122-241)
- T1 construct: mature; Expressed with baculovirus technology; also called feline NGF (processed form identical)
- Assay Remarks: SPR off-rate screen, Fab-SASA on BSA chip
Each entry below carries its recorded pKd.
Would you please state pKd, meaning minus log10 of the concentration in mol/L, as a bare number?

Below, 3 binders whose answers are already recorded.
Item felinized clone 101 Fab-SASA variant S35V (VH) (Fab, V domains shown, not shown: small tags and cut ends) VH: DVQLVESGGDLVKPGGSLRLTCVASGLSLTSSSMVWVRQAPGKGLQWVSTIYSNGGTYYTDSVKGRFTISKDNAENTLYLQMNNLKTEDTATYYCASIYYYDADYLHWYFDFWGQGALVTVSS VL: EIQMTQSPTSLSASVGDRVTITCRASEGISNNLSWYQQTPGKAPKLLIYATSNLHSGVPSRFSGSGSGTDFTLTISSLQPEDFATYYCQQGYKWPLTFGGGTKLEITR has what recorded pKd? 8.93

Given the binder felinized clone 101 Fab-SASA variant S56N (VL) (Fab, V domains shown, not shown: small tags and cut ends) VH: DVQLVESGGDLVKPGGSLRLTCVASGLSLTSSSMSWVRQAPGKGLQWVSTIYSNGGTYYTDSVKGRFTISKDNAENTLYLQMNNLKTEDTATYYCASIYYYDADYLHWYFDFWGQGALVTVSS VL: EIQMTQSPTSLSASVGDRVTITCRASEGISNNLSWYQQTPGKAPKLLIYATSNLHNGVPSRFSGSGSGTDFTLTISSLQPEDFATYYCQQGYKWPLTFGGGTKLEITR , what is its reported pKd? 8.58

# lookup: pKd of felinized clone 101 Fab-SASA variant S34A (VL) (Fab, V domains shown, not shown: small tags and cut ends) VH: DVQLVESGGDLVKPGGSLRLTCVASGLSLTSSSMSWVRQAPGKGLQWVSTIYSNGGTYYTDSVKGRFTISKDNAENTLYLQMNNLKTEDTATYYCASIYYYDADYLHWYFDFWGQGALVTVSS VL: EIQMTQSPTSLSASVGDRVTITCRASEGISNNLAWYQQTPGKAPKLLIYATSNLHSGVPSRFSGSGSGTDFTLTISSLQPEDFATYYCQQGYKWPLTFGGGTKLEITR 8.76

Further cases:
Given the binder felinized clone 101 Fab-SASA variant H55M (VL) (Fab, V domains shown, not shown: small tags and cut ends) VH: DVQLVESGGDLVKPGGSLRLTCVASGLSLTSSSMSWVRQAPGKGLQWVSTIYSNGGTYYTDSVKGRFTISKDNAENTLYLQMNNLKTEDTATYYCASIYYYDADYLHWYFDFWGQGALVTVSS VL: EIQMTQSPTSLSASVGDRVTITCRASEGISNNLSWYQQTPGKAPKLLIYATSNLMSGVPSRFSGSGSGTDFTLTISSLQPEDFATYYCQQGYKWPLTFGGGTKLEITR , what is its reported pKd? 9.03
